system: MCF7; experiment: Growth inhibition of human MCF7 cells after 72 hrs by MTT assay; assay type: functional, cell-based; settings: MCF7, 72 h
Recorded measurements of log10(IC50), one per entry
Experimental readout: log10(IC50) (log10 of the value in µM)

{"Compound": "CN1CCN(CCNC(=O)c2cc3c4ccccc4[nH]c3c3c2[nH]c2ccccc23)CC1", "log10(IC50)": 0.73}
{"Compound": "CN(C)CCCNC(=O)c1cc2c3ccccc3[nH]c2c2c1[nH]c1ccccc12", "log10(IC50)": 0.57}
{"Compound": "CN(C)c1ccccc1NC(=O)c1cc2c3ccccc3[nH]c2c2c1[nH]c1ccccc12", "log10(IC50)": 1.03}
{"Compound": "O=C(NCCN1CCOCC1)c1cc2c3ccccc3[nH]c2c2c1[nH]c1ccccc12", "log10(IC50)": 0.89}
{"Compound": "COc1ccc2[nH]c3c(C(=O)NCCN4CCCC4)cc4c5ccccc5[nH]c4c3c2c1", "log10(IC50)": 0.75}
{"Compound": "CCN(CC)CCNC(=O)c1cc2c3ccccc3[nH]c2c2c1[nH]c1ccccc12", "log10(IC50)": 0.38}
{"Compound": "O=C(NCc1ccccn1)c1cc2c3ccccc3[nH]c2c2c1[nH]c1ccccc12", "log10(IC50)": 1.36}
{"Compound": "O=C(NCCN1CCCC1)c1cc2c3ccccc3[nH]c2c2c1[nH]c1cc(Cl)ccc12", "log10(IC50)": 0.92}
{"Compound": "O=C(NCc1cccnc1)c1cc2c3ccccc3[nH]c2c2c1[nH]c1ccccc12", "log10(IC50)": 0.99}
{"Compound": "O=C(NCCN1CCCCC1)c1cc2c3ccccc3[nH]c2c2c1[nH]c1ccccc12", "log10(IC50)": 0.51}
{"Compound": "CN(C)CCNC(=O)c1cc2c3ccccc3[nH]c2c2c1[nH]c1cc(Cl)ccc12", "log10(IC50)": 0.90}
{"Compound": "CN(C)CCNC(=O)c1cc2c3ccccc3[nH]c2c2c1[nH]c1ccc(Br)cc12", "log10(IC50)": 0.30}
{"Compound": "CN(C)c1ccc(NC(=O)c2cc3c4ccccc4[nH]c3c3c2[nH]c2ccccc23)cc1", "log10(IC50)": 1.21}
{"Compound": "O=C(NCCN1CCCC1)c1cc2c3ccccc3[nH]c2c2c1[nH]c1ccccc12", "log10(IC50)": 0.49}
{"Compound": "O=C(NCCN1CCCC1)c1cc2c3ccccc3[nH]c2c2c1[nH]c1ccc(Br)cc12", "log10(IC50)": 0.11}
{"Compound": "CC(C)N(CCNC(=O)c1cc2c3ccccc3[nH]c2c2c1[nH]c1ccccc12)C(C)C", "log10(IC50)": 0.49}
{"Compound": "CN(C)CCN(C)C(=O)c1cc2c3ccccc3[nH]c2c2c1[nH]c1ccccc12", "log10(IC50)": 0.80}
{"Compound": "CCN1CCCC1CNC(=O)c1cc2c3ccccc3[nH]c2c2c1[nH]c1ccccc12 (stereo unspecified)", "log10(IC50)": 0.77}
{"Compound": "COc1cccc2c1C(=O)c1c(O)c3c(c(O)c1C2=O)C[C@@](O)(C(=O)CO)C[C@@H]3O[C@H]1C[C@H](N)[C@H](O)[C@H](C)O1", "log10(IC50)": -0.38}
{"Compound": "CN(C)CCNC(=O)c1cc2c3ccccc3[nH]c2c2c1[nH]c1ccccc12", "log10(IC50)": 0.53}

Reference for the values: ChEMBL document CHEMBL4382242
